Experiment: Double-blind, placebo controlled, ascending single dose pharmacokinetic study of oral DPC 333 in healthy subjects
Assay type: in vivo, human
Settings: both sexes, human, plasma; single oral dose 120 mg, healthy volunteers, n = 6; read-out: Cmax Mean
ENDPOINT LABEL: Cmax

Return Cmax (reported value) for this compound: Cc1cc(COc2ccc([C@]3(N)CCN([C@H](CC(C)C)C(=O)NO)C3=O)cc2)c2ccccc2n1 [DPC 333] 1.94 µM

----------
Assay: Double-blind, placebo controlled, ascending single dose pharmacokinetic study of oral DPC 333 in healthy subjects
Format: in vivo, human
Settings: both sexes, human, plasma; single oral dose 120 mg, healthy volunteers, n = 6; read-out: C12 (plasma concentration at 12 hours) Mean
ENDPOINT LABEL: concentration at 12 h
The reply should read as a number followed by its unit.

Return concentration at 12 h (reported value) for this compound: Cc1cc(COc2ccc([C@]3(N)CCN([C@H](CC(C)C)C(=O)NO)C3=O)cc2)c2ccccc2n1 [DPC 333] 30.3 nM

----------
Assay: Double-blind, placebo controlled, ascending single dose pharmacokinetic study of oral DPC 333 in healthy subjects
Format: in vivo, human
Conditions: both sexes, human, plasma, po, 80 mg, single oral dose 80 mg, healthy volunteers, n = 12; read-out: T½ Mean (harmonic mean) (converted)
ENDPOINT LABEL: half-life (h)
Give bare numbers, in h.

Return half-life (reported value) for this molecule: `Cc1cc(COc2ccc([C@]3(N)CCN([C@H](CC(C)C)C(=O)NO)C3=O)cc2)c2ccccc2n1` 4.05

----------
Experiment: Double-blind, placebo controlled, ascending single dose pharmacokinetic study of oral DPC 333 in healthy subjects
Assay type: in vivo, human
Settings: both sexes, human, plasma; oral administration, post dose, doses 15 to 530 mg; read-out: Tmax values
ENDPOINT LABEL: Tmax

Return Tmax (reported value) for this compound: `Cc1cc(COc2ccc([C@]3(N)CCN([C@H](CC(C)C)C(=O)NO)C3=O)cc2)c2ccccc2n1` < 1 h

----------
Assay: Double-blind, placebo controlled, ascending single dose pharmacokinetic study of oral DPC 333 in healthy subjects
Type: in vivo, human
Settings: both sexes, human, plasma, oral; single dose of 530 mg; read-out: mean maximum plasma concentration (Cmax), range
ENDPOINT LABEL: Cmax

Return Cmax (reported value) for this compound: `Cc1cc(COc2ccc([C@]3(N)CCN([C@H](CC(C)C)C(=O)NO)C3=O)cc2)c2ccccc2n1` 9.45 to 18.1 µM

----------
Assay: Double-blind, placebo controlled, ascending single dose pharmacokinetic study of oral DPC 333 in healthy subjects
Assay type: in vivo, human
Conditions: both sexes, human, plasma; single oral dose 15 mg, healthy volunteers, n = 6; read-out: Cmax Mean
ENDPOINT LABEL: Cmax (nM)
Answers are plain numbers, in nM.

Return Cmax (reported value) for this molecule: Cc1cc(COc2ccc([C@]3(N)CCN([C@H](CC(C)C)C(=O)NO)C3=O)cc2)c2ccccc2n1 [DPC 333] 134

----------
Experiment: Double-blind, placebo controlled, ascending single dose pharmacokinetic study of oral DPC 333 in healthy subjects
Assay type: in vivo, human
Conditions: both sexes, human, plasma; single oral dose 120 mg, healthy volunteers, n = 6; read-out: Tmax Median
ENDPOINT LABEL: Tmax (min)
One number for each entry, in min.

Return Tmax (reported value) for this compound: `Cc1cc(COc2ccc([C@]3(N)CCN([C@H](CC(C)C)C(=O)NO)C3=O)cc2)c2ccccc2n1` 30

----------
Assay: Effect of food on pharmacokinetics of oral DPC 333, two period crossover study (fasted vs high-fat breakfast)
Assay type: in vivo, human
Settings: male, human, plasma, po, 225 mg, Fasted, 225 mg single oral dose, male subjects, n = 6, mean ± SD
ENDPOINT LABEL: Cmax (µM)
Numbers only, in µM.

Return Cmax (reported value) for this compound: `Cc1cc(COc2ccc([C@]3(N)CCN([C@H](CC(C)C)C(=O)NO)C3=O)cc2)c2ccccc2n1` 5.7

----------
Test: Comparison of DPC 333 pharmacokinetics by gender in fasted subjects
Type: in vivo, human
Details: male, human, plasma, oral, 225 mg, Males (n = 6), Part 1: 225 mg (fasted), harmonic mean ± pseudo-standard deviation
ENDPOINT LABEL: half-life

Return half-life (reported value) for this molecule: `Cc1cc(COc2ccc([C@]3(N)CCN([C@H](CC(C)C)C(=O)NO)C3=O)cc2)c2ccccc2n1` 5.53 h

----------
Assay: Double-blind, placebo controlled, ascending single dose pharmacokinetic study of oral DPC 333 in healthy subjects
Format: in vivo, human
Details: both sexes, human, plasma; single oral dose 530 mg, healthy volunteers, n = 6
ENDPOINT LABEL: AUC(0-inf) (µM·h)
Answers are plain numbers, in µM·h.

Return AUC(0-inf) (reported value) for this molecule: Cc1cc(COc2ccc([C@]3(N)CCN([C@H](CC(C)C)C(=O)NO)C3=O)cc2)c2ccccc2n1 [DPC 333] 30.8

----------
Assay: Double-blind, placebo controlled, ascending single dose pharmacokinetic study of oral DPC 333 in healthy subjects
Format: in vivo, human
Details: both sexes, human, plasma, oral; single dose of 530 mg; read-out: mean AUC from time zero to time infinity, range
ENDPOINT LABEL: AUC

Return AUC (reported value) for this molecule: Cc1cc(COc2ccc([C@]3(N)CCN([C@H](CC(C)C)C(=O)NO)C3=O)cc2)c2ccccc2n1 [DPC 333] 22 to 39.5 µM·h

----------
Assay: Double-blind, placebo controlled, ascending single dose pharmacokinetic study of oral DPC 333 in healthy subjects
Type: in vivo, human
Conditions: both sexes, human, plasma; single oral dose 80 mg, healthy volunteers, n = 12; read-out: Tmax Median
ENDPOINT LABEL: Tmax (min)
Answers are plain numbers, in min.

Return Tmax (reported value) for this compound: `Cc1cc(COc2ccc([C@]3(N)CCN([C@H](CC(C)C)C(=O)NO)C3=O)cc2)c2ccccc2n1` 30

----------
Assay: Double-blind, placebo controlled, ascending single dose pharmacokinetic study of oral DPC 333 in healthy subjects
Format: in vivo, human
Settings: both sexes, human, plasma, oral; single dose of 530 mg; read-out: mean time of maximum plasma concentration (Tmax), range
Protocol: The safety, tolerability, and pharmacokinetics of an oral dose form of DPC 333 were evaluated in a double-blind, placebo controlled, ascending single dose study in healthy male and female human subjects. Subjects in each cohort were randomized to receive either a single dose of DPC 333 (n=6) or placebo (n=2). […] The following pharmacokinetic parameters for DPC 333 were assessed following a single dose administration of the DPC 333 oral dosage form to a subject: Cmax, Tmax, AUC, T1/2, Clo, and C12. […]
ENDPOINT LABEL: Tmax

Return Tmax (reported value) for this compound: Cc1cc(COc2ccc([C@]3(N)CCN([C@H](CC(C)C)C(=O)NO)C3=O)cc2)c2ccccc2n1 [DPC 333] 30 to 60 min

----------
Experiment: Double-blind, placebo controlled, ascending single dose pharmacokinetic study of oral DPC 333 in healthy subjects
Type: in vivo, human
Conditions: both sexes, human, plasma, oral; single dose of 40 mg; read-out: mean AUC from time zero to time infinity, range
ENDPOINT LABEL: AUC

Return AUC (reported value) for this compound: Cc1cc(COc2ccc([C@]3(N)CCN([C@H](CC(C)C)C(=O)NO)C3=O)cc2)c2ccccc2n1 [DPC 333] 0.93 to 1.43 µM·h

----------
Test: Double-blind, placebo controlled, ascending single dose pharmacokinetic study of oral DPC 333 in healthy subjects
Format: in vivo, human
Settings: both sexes, human, plasma, po, 225 mg, single oral dose 225 mg, healthy volunteers, n = 6; read-out: T½ Mean (harmonic mean) (converted)
ENDPOINT LABEL: half-life (h)
Give bare numbers, in h.

Return half-life (reported value) for this compound: `Cc1cc(COc2ccc([C@]3(N)CCN([C@H](CC(C)C)C(=O)NO)C3=O)cc2)c2ccccc2n1` 5.53

----------
Assay: Double-blind, placebo controlled, ascending single dose pharmacokinetic study of oral DPC 333 in healthy subjects
Type: in vivo, human
Conditions: both sexes, human, plasma, po, 15 mg, single oral dose 15 mg, healthy volunteers, n = 6; read-out: T½ Mean (harmonic mean) (converted)
ENDPOINT LABEL: half-life (h)
Give bare numbers, in h.

Return half-life (reported value) for this compound: `Cc1cc(COc2ccc([C@]3(N)CCN([C@H](CC(C)C)C(=O)NO)C3=O)cc2)c2ccccc2n1` 2.18

----------
Experiment: Double-blind, placebo controlled, ascending single dose pharmacokinetic study of oral DPC 333 in healthy subjects
Format: in vivo, human
Details: both sexes, human, plasma, po, 120 mg, single oral dose 120 mg, healthy volunteers, n = 6; read-out: T½ Mean (harmonic mean) (converted)
ENDPOINT LABEL: half-life (h)
Numbers only, in h.

Return half-life (reported value) for this compound: `Cc1cc(COc2ccc([C@]3(N)CCN([C@H](CC(C)C)C(=O)NO)C3=O)cc2)c2ccccc2n1` 4.89

----------
Assay: Effect of food on pharmacokinetics of oral DPC 333, two period crossover study (fasted vs high-fat breakfast)
Type: in vivo, human
Details: male, human, plasma, po, 225 mg, Fed (high-fat breakfast), 225 mg single oral dose, male subjects, n = 6, mean ± SD
ENDPOINT LABEL: AUC(0-inf)
The reply should read as a number followed by its unit.

Return AUC(0-inf) (reported value) for this compound: `Cc1cc(COc2ccc([C@]3(N)CCN([C@H](CC(C)C)C(=O)NO)C3=O)cc2)c2ccccc2n1` 9.49 µM·h
